Reference for the values: patent US6017871A

# Substrate: C[C@H](NC(=O)CCC(=O)O)C(=O)N[C@@H](C)C(=O)N1CCC[C@H]1C(=O)N[C@@H](Cc1ccccc1)C(=O)Nc1ccc([N+](=O)[O-])cc1
# experimentSummary: Kinetic parameters for hydrolysis of synthetic peptide substrate
# Type: biochemical, Bacillus lentus
# conditionsUsed: other: Table III, 0.1 M Tris-HCL buffer, pH 8.6, 25° C.
Items are presented alongside their recorded Km.
Use µM as the unit, but write only the number.

# annotated cases, reported Km shown
1) Bacillus lentus subtilisin variant N76D/S101R (Protease #2) (Lederbergia lenta; N74D/S99R) (protein, The mature subtilisin protein is coded by the codons beginning at the codon GCG (334-336) corresponding to Ala; made in house; host or cells: Bacillus subtilis) AQSVPWGISRVQAPAAHNRGLTGSGVKVAVLDTGISTHPDLNIRGGASFVPGEPSTQDGNGHGTHVAGTIAALDNSIGVLGVAPSAELYAVKVLGASGRGSVSSIAQGLEWAGNNGMHVANLSLGSPSPSATLEQAVNSATSRGVLVVAASGNSGAGSISYPARYANAMAVGATDQNNNRASFSQYGAGLDIVAPGVNVQSTYPGSTYASLNGTSMATPHVAGAAALVKQKNPSWSNVQIRNHLKNTATSLGSTNLYGSGLVNAEAATR = 1300
2) Bacillus lentus subtilisin variant N76D/V104I (Protease #4) (Lederbergia lenta; N74D/V102I) (protein, The mature subtilisin protein is coded by the codons beginning at the codon GCG (334-336) corresponding to Ala; made in house; host or cells: Bacillus subtilis) AQSVPWGISRVQAPAAHNRGLTGSGVKVAVLDTGISTHPDLNIRGGASFVPGEPSTQDGNGHGTHVAGTIAALDNSIGVLGVAPSAELYAVKVLGASGSGSISSIAQGLEWAGNNGMHVANLSLGSPSPSATLEQAVNSATSRGVLVVAASGNSGAGSISYPARYANAMAVGATDQNNNRASFSQYGAGLDIVAPGVNVQSTYPGSTYASLNGTSMATPHVAGAAALVKQKNPSWSNVQIRNHLKNTATSLGSTNLYGSGLVNAEAATR = 1100
3) Bacillus lentus subtilisin variant N76D/S103A (Protease #3) (Lederbergia lenta; N74D/S101A) (protein, The mature subtilisin protein is coded by the codons beginning at the codon GCG (334-336) corresponding to Ala; made in house; host or cells: Bacillus subtilis) AQSVPWGISRVQAPAAHNRGLTGSGVKVAVLDTGISTHPDLNIRGGASFVPGEPSTQDGNGHGTHVAGTIAALDNSIGVLGVAPSAELYAVKVLGASGSGAVSSIAQGLEWAGNNGMHVANLSLGSPSPSATLEQAVNSATSRGVLVVAASGNSGAGSISYPARYANAMAVGATDQNNNRASFSQYGAGLDIVAPGVNVQSTYPGSTYASLNGTSMATPHVAGAAALVKQKNPSWSNVQIRNHLKNTATSLGSTNLYGSGLVNAEAATR = 1400

Field request: Km | item: Bacillus lentus subtilisin variant N76D/S99D (Protease #1) (Lederbergia lenta; N74D/S97D) (protein, The mature subtilisin protein is coded by the codons beginning at the codon GCG (334-336) corresponding to Ala; made in house; host or cells: Bacillus subtilis) AQSVPWGISRVQAPAAHNRGLTGSGVKVAVLDTGISTHPDLNIRGGASFVPGEPSTQDGNGHGTHVAGTIAALDNSIGVLGVAPSAELYAVKVLGADGSGSVSSIAQGLEWAGNNGMHVANLSLGSPSPSATLEQAVNSATSRGVLVVAASGNSGAGSISYPARYANAMAVGATDQNNNRASFSQYGAGLDIVAPGVNVQSTYPGSTYASLNGTSMATPHVAGAAALVKQKNPSWSNVQIRNHLKNTATSLGSTNLYGSGLVNAEAATR
610

# Km lookup, item Bacillus lentus subtilisin variant N76D/I107V (Protease #5) (Lederbergia lenta; I105V/N74D) (protein, The mature subtilisin protein is coded by the codons beginning at the codon GCG (334-336) corresponding to Ala; made in house; host or cells: Bacillus subtilis) AQSVPWGISRVQAPAAHNRGLTGSGVKVAVLDTGISTHPDLNIRGGASFVPGEPSTQDGNGHGTHVAGTIAALDNSIGVLGVAPSAELYAVKVLGASGSGSVSSVAQGLEWAGNNGMHVANLSLGSPSPSATLEQAVNSATSRGVLVVAASGNSGAGSISYPARYANAMAVGATDQNNNRASFSQYGAGLDIVAPGVNVQSTYPGSTYASLNGTSMATPHVAGAAALVKQKNPSWSNVQIRNHLKNTATSLGSTNLYGSGLVNAEAATR
1100

Which Km is listed for Bacillus lentus subtilisin variant N76D/N123S (Protease #6) (Lederbergia lenta; N121S/N74D) (protein, The mature subtilisin protein is coded by the codons beginning at the codon GCG (334-336) corresponding to Ala; made in house; host or cells: Bacillus subtilis) AQSVPWGISRVQAPAAHNRGLTGSGVKVAVLDTGISTHPDLNIRGGASFVPGEPSTQDGNGHGTHVAGTIAALDNSIGVLGVAPSAELYAVKVLGASGSGSVSSIAQGLEWAGNNGMHVASLSLGSPSPSATLEQAVNSATSRGVLVVAASGNSGAGSISYPARYANAMAVGATDQNNNRASFSQYGAGLDIVAPGVNVQSTYPGSTYASLNGTSMATPHVAGAAALVKQKNPSWSNVQIRNHLKNTATSLGSTNLYGSGLVNAEAATR ?
1800
